# TGI annotations
# System: HCT-116 colon
# Test description: NCI tumour cell line growth inhibition, 48 h

Examples from the recorded data:
# Chemical string, TGI
rows = [
    ("Cn1ccnc1C(=O)/C=C/c1ccc(C(=O)Nc2nc3ccccc3[nH]2)cc1", "> 25 µM"),
    ("COc1cc2c(cc1OC)CCN=C2", "> 100 µM"),
    ("CSC(=NCCN=C(NS(=O)(=O)c1ccc(Cl)cc1)SC)NS(=O)(=O)c1ccc(Cl)cc1", "> 100 µM"),
    ("Nc1c(C(=O)c2ccccc2)[nH]c(NCc2ccccc2)c1C(=S)Nc1ccccc1", "> 100 µM"),
    ("O=C(O)c1ccccc1/C=N\\NC1=NCCN1", "> 100 µM"),
]

From here, focus on the item given below.
Query :: Form field: reported TGI of COc1ccc([C@H]2O[C@@H](CO)C[C@]2(O)c2ccc(OC)cc2)cc1
Result :: > 100 µM

###

# Tested on: SN12C renal
# Test description: NCI tumour cell line growth inhibition, 48 h
Observation type: TGI

# Molecule, Value observed
records = [
    ("Cc1cc(C)c(C(=O)OC(c2ccccc2)C(c2ccccc2)N2CCOCC2)c(C)c1 (stereo not drawn)", "> 100 µM"),
    ("Cc1ccc(N2C(=O)/C(=C3\\Sc4c(nc(C)[nH]c4=O)N3c3ccccc3)SC2=S)cc1", "> 100 µM"),
    ("Cc1cn(C2CC(N=[N+]=[N-])C(CO[Si](C)(C)C(C)(C)C)O2)c(=O)[nH]c1=O (stereo not drawn)", "30.4 µM"),
    ("NC(=O)N(O)c1cccc(Br)c1", "> 100 µM"),
    ("CN(C)c1ccc(/C=C/c2ccnc3ccccc23)cc1", "> 100 µM"),
]

Query :: I am curious: what TGI value has been reported for CCOC(=O)C12CC1(C(=O)OCC)C1CCC2C1 (stereo not drawn) ?
Result :: > 100 µM

Query :: Reported TGI, molecule CN1C[C@@H]2CCCN2P1Oc1cccc2cccnc12 (stereo partly drawn) : ____
Result :: > 100 µM

Query :: Consider the molecule CC(=O)Oc1c(OC(C)=O)c(-c2ccc(O)c(O)c2)c(O)c(O)c1-c1ccc(O)cc1 and give its measured TGI.
Result :: > 100 µM

Query :: Param item = CCC1(CN(C)C)CC/C(=C\c2ccc3c(c2)OCO3)C1=O (stereo not drawn) ; retrieve measured TGI.
Result :: > 100 µM

Query :: Give its TGI value. Item: CN(/N=C\c1ccc2ccccc2c1)C1=NCCCCN1
Result :: 45.7 µM

###

Below: a set of entries, each annotated with reported TGI.
# Test system: SF-268 CNS
# Test description: NCI tumour cell line growth inhibition, 48 h
# number only, unit µM dropped from output

Study these solved cases before continuing.
# Molecule, Unit of measure, TGI
rows = [
    ("O=C(/C=C/c1cccc(Cl)c1)c1ccc(Cl)cc1Cl", "µM", 25.1),
    ("CCN(CC)CCNc1ccc(C)c2sc3ccc(O)cc3c(=O)c12", "µM", 7.93),
    ("CC1=C2C(c3ccccc3)(c3ccccc3)C3C=CC2(C=N3)N(C(=O)NC2CCCCC2)C1=O (configuration not stated)", "µM", 34.7),
]

Query :: Returns the measured TGI for the input molecule. Input: C[C@@H]1CC[C@@]2(OC1)O[C@H]1C[C@H]3[C@@H]4CC=C5C[C@@H](O[C@@H]6O[C@H](CO)[C@@H](O[C@@H]7O[C@@H](CO)[C@H](O)[C@H]7O)[C@H](O)[C@H]6O[C@@H]6O[C@@H](C)[C@H](O)[C@@H](O)[C@H]6O)CC[C@]5(C)[C@H]4CC[C@]3(C)[C@H]1[C@@H]2C
Result :: 2.47

Query :: Value lookup for TGI; key = O=[As](O)(O)c1ccc(Cc2ccc([As](=O)(O)O)cc2)cc1
Result :: 1.85

Query :: Name the reported TGI value associated with the molecule CCCc1c2c3ccccc3nc-2nc2ccccn12
Result :: 70.4

Query :: Give the measured TGI of COC(=O)CCCCC/C(=C\C(=O)C(Cl)(Cl)Cl)OC .
Result :: 86.3

Query :: So what's the measured TGI for this one? C=C(Cl)C(Cl)(CBr)CCC(Cl)C(C)(C)Cl (configuration not stated)
Result :: 2.92

Query :: GET /values?readout=TGI&item= Fc1ccc(C(OCCN2CCC3CCC(C2)N3Cc2cc3ccccc3[nH]2)c2ccc(F)cc2)cc1 (configuration not stated)
Result :: 4.12

Query :: What value of TGI has been recorded for this entry: C[Se]C(=O)CC1=C2C=C(F)C=CC2/C(=C\c2ccc(S(C)=O)cc2)C1C (configuration not stated)
Result :: 0.0242

Query :: Which TGI value belongs to COc1ccc(/C=C2\COc3ccc(-c4ccccc4)cc3C2=O)cc1O ?
Result :: 12.7

Query :: Consider the molecule shown here: O=C(C1OC1c1ccc([N+](=O)[O-])cc1)C12CC3CC(CC(C3)C1)C2 (configuration not stated) What is its recorded TGI?
Result :: 40.8

Query :: Would you mind telling me what TGI value was observed for Cc1cn(C2CC(N=[N+]=[N-])C(CO[Si](C)(C)C(C)(C)C)O2)c(=O)[nH]c1=O (configuration not stated) ?
Result :: 45.8

Query :: Tell me the measured TGI of COC(=O)C1(Cc2cccc(Cl)c2)CCCCCCN1C(=O)c1ccccc1 (configuration not stated) , please.
Result :: 42.1

Query :: Which measured TGI value corresponds to COc1ccc(C(Nc2ncccn2)c2cc3c(cc2O)OCO3)cc1 (configuration not stated) ?
Result :: 38.4

Query :: For the molecule CC1=C(C(=O)OC(C)C)C(c2ccccc2[N+](=O)[O-])C(C(=O)OC(CO[N+](=O)[O-])CO[N+](=O)[O-])=C(C)N1 (configuration not stated) , what TGI is on record?
Result :: 16.8

Query :: May I ask what TGI has been recorded for O=Cc1coc2ccccc2c1=O ?
Result :: 56.7
